ASSAY_OVERVIEW: Antiproliferative activity against human SW707 cells by SRB method
Format: functional
Lab note: anything with log(1/ID50) below -2 is marked 1.0; values at -2 or higher are marked 0.0.

[[record]]
smiles_notation = "Oc1ccc(-c2nnc(Cc3cccc4ccccc34)s2)c(O)c1"
class_assignment = 0.0

[[record]]
smiles_notation = "Cc1cccc(-c2nnc(-c3ccc(O)cc3O)s2)c1O"
class_assignment = 0.0

[[record]]
smiles_notation = "Oc1ccc(-c2nnc(CCCCc3nnc(-c4ccc(O)cc4O)s3)s2)c(O)c1"
class_assignment = 0.0

[[record]]
smiles_notation = "COc1cccc(COc2nnc(-c3ccc(O)cc3O)s2)c1"
class_assignment = 0.0

[[record]]
smiles_notation = "Oc1ccc(-c2nnc(-c3ccccc3Br)s2)c(O)c1"
class_assignment = 0.0

[[record]]
smiles_notation = "Oc1ccc(-c2nnc(-c3cccc4ccccc34)s2)c(O)c1"
class_assignment = 0.0

[[record]]
smiles_notation = "Oc1ccc(-c2nnc(-c3ccco3)s2)c(O)c1"
class_assignment = 1.0

[[record]]
smiles_notation = "CC(C)(C)c1ccc(-c2nnc(-c3ccc(O)cc3O)s2)cc1"
class_assignment = 0.0

[[record]]
smiles_notation = "Oc1ccc(-c2nnc(-c3ccc(-c4ccccc4)cc3)s2)c(O)c1"
class_assignment = 0.0

[[record]]
smiles_notation = "Cc1cc(Cl)ccc1OCc1nnc(-c2ccc(O)cc2O)s1"
class_assignment = 1.0

